Reference for the values: the supplement of paper PMC6555819

Test system: FXR:RXRa (NR concentration 270 nM, RXRa partner concentration 90 nM)
procedureText: PBM binding z-score (relative to random genomic background probes); higher = stronger binding; sequences stand for … in GC…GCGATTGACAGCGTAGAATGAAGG
Recorded measurements of PBM binding z-score, one per entry
propertyName: PBM binding z-score

| sequenceInput | numericReadout |
| --- | --- |
| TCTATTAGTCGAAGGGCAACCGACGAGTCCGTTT | 0.678 |
| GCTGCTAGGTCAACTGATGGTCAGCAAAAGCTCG | 4.32 |
| GCTATTAGTTGTAAGGGCAACCGAATGATTCTCG | 0.301 |
| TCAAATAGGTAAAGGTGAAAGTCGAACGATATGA | 0.93 |
| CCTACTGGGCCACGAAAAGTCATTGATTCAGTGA | -0.198 |
| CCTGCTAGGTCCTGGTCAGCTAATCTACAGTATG | -0.334 |
| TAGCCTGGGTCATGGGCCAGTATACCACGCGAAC | 3.85 |
| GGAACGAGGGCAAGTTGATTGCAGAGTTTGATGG | 1.16 |
| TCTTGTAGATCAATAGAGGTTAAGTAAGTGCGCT | 1.18 |
| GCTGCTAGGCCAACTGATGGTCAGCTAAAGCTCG | -0.828 |
| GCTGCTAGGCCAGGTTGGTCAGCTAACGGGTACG | -1 |
| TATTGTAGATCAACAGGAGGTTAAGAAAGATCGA | 0.217 |
| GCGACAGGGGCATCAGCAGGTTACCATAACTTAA | 0.0406 |
| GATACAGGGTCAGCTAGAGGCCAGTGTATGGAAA | 4.14 |
| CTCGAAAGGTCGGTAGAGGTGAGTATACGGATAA | 2.48 |
| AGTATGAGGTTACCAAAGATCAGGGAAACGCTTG | 1.85 |
| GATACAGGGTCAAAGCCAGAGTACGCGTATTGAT | 7.15 |
